Reported pKd by item:
Target: HLA-A*03:01
Assay: IEDB peptide-MHC binding, purified MHC/direct/fluorescence; filed as Kd, often an IC50 or EC50 that approximates it; bounds were set here for any values at or beyond the usual limits of such assays
Details: source organism: Zaire ebolavirus
pKd: −log10 of the molar value.

**Q:** So what does the record say about pKd for `AFHQLVQVI` ?
**A:** ≤ 4.70

Others:
**Q:** Which measured pKd value corresponds to `TAAIMLASY` ?
**A:** ≤ 4.70

---

Target: HLA-C*07:02
Assay: IEDB peptide-MHC binding, purified MHC/direct/fluorescence; filed as Kd, often an IC50 or EC50 that approximates it; bounds were set here for any values at or beyond the usual limits of such assays
Details: source organism: Vaccinia virus
readoutType: Kd (µM)
Report the value in µM with no unit label.

**Q:** Recorded Kd of `LLYAHINAL` , please.
**A:** 0.216

---

Biological target: HLA-A*69:01
Assay: IEDB peptide-MHC binding, purified MHC/direct/fluorescence; filed as Kd, often an IC50 or EC50 that approximates it; bounds were set here for any values at or beyond the usual limits of such assays
Settings: source organism: Amur virus
readoutType: Kd

**Q:** Reported Kd, sequence `SLTECPTFL` : ____
**A:** ≥ 20 µM

---

Biological target: HLA-B*27:03
Experiment: IEDB peptide-MHC binding, purified MHC/competitive/fluorescence; filed as Kd, often an IC50 or EC50 that approximates it; bounds were set here for any values at or beyond the usual limits of such assays
Details: source organism: Listeria monocytogenes J0161
pKd: −log10 of the molar value.
readoutType: pKd

**Q:** Please give the measured pKd for this sequence: `YNAKRIETV`
**A:** ≤ 4.70

---

Biological target: HLA-A*68:23
Experiment: IEDB peptide-MHC binding, purified MHC/competitive/fluorescence; filed as Kd, often an IC50 or EC50 that approximates it; bounds were set here for any values at or beyond the usual limits of such assays
Conditions: source organism: Escherichia coli 536
readoutType: Kd (nM)
Note: unit nM is implicit; provide only the numeric part.

**Q:** Look up Kd: `KEMGFSPRL`
**A:** 121

---

Target: HLA-B*27:05
Test: IEDB peptide-MHC binding, purified MHC/direct/fluorescence; filed as Kd, often an IC50 or EC50 that approximates it; bounds were set here for any values at or beyond the usual limits of such assays
Details: source organism: Brucella abortus
readoutType: Kd

**Q:** Query Kd on HLA-B*27:05 for `RFRCVGPAP`
**A:** ≥ 20 µM

---

Molecular target: HLA-B*15:17
Assay: IEDB peptide-MHC binding, purified MHC/direct/fluorescence; filed as Kd, often an IC50 or EC50 that approximates it; bounds were set here for any values at or beyond the usual limits of such assays
Settings: source organism: Brucella suis
readoutType: Kd (nM)
Provide only the numeric value, understood in nM.

**Q:** Bench note: what Kd did `IARISALGF` show?
**A:** 3.6

---

Target: HLA-B*48:01
Test: IEDB peptide-MHC binding, purified MHC/direct/fluorescence; filed as Kd, often an IC50 or EC50 that approximates it; bounds were set here for any values at or beyond the usual limits of such assays
Conditions: source organism: Mycobacterium tuberculosis
readoutType: Kd

**Q:** If you can, please state the reported Kd value of `QQDTNSAGL` .
**A:** ≥ 20 µM

Please find the next sequence below.
**Q:** Recorded Kd of `RVEESRARL` , please.
**A:** ≥ 20 µM

---

Biological target: HLA-A*01:01
Experiment: IEDB peptide-MHC binding, purified MHC/direct/fluorescence; filed as Kd, often an IC50 or EC50 that approximates it; bounds were set here for any values at or beyond the usual limits of such assays
Conditions: source organism: Escherichia coli O6
readoutType: Kd

**Q:** For the sequence shown here, `TPVWHVTSA` , give the reported Kd.
**A:** ≥ 20 µM

---

Target: HLA-A*11:01
Experiment: IEDB peptide-MHC binding, purified MHC/direct/fluorescence; filed as Kd, often an IC50 or EC50 that approximates it; bounds were set here for any values at or beyond the usual limits of such assays
Conditions: source organism: Pseudomonas putida
readoutType: Kd (nM)
Kindly provide the numeric value in nM only, without the unit symbol.

**Q:** Find the measured Kd: item `RVWRGEQGK` , target or system HLA-A*11:01.
**A:** 54.8

---

Molecular target: HLA-B*35:01
Assay: IEDB peptide-MHC binding, purified MHC/direct/fluorescence; filed as Kd, often an IC50 or EC50 that approximates it; bounds were set here for any values at or beyond the usual limits of such assays
Conditions: source organism: Escherichia coli O157:H7
readoutType: Kd (nM)
Expressed in nM, but write only the number.

**Q:** Need Kd of `IAIPAHVRL` , thanks.
**A:** 392

---

Target: HLA-A*24:03
Experiment: IEDB peptide-MHC binding, purified MHC/direct/fluorescence; filed as Kd, often an IC50 or EC50 that approximates it; bounds were set here for any values at or beyond the usual limits of such assays
Conditions: source organism: Bacillus anthracis str. Sterne
readoutType: Kd

**Q:** I am curious: what Kd value has been reported for `KKNHWFILK` ?
**A:** ≥ 20 µM

---

Biological target: HLA-A*68:02
Experiment: IEDB peptide-MHC binding, purified MHC/competitive/fluorescence; filed as Kd, often an IC50 or EC50 that approximates it; bounds were set here for any values at or beyond the usual limits of such assays
Conditions: source organism: Homo sapiens
readoutType: Kd

**Q:** Give recorded Kd with HLA-A*68:02 for the following sequence: `SLFNWLWYE`
**A:** ≥ 20 µM

---

Target: HLA-A*02:01
Test: IEDB peptide-MHC binding, purified MHC/competitive/fluorescence; filed as Kd, often an IC50 or EC50 that approximates it; bounds were set here for any values at or beyond the usual limits of such assays
Conditions: source organism: Human immunodeficiency virus 1
readoutType: pKd
Scale: pKd equals -log10([C]), with [C] in mol/L.

**Q:** State the recorded pKd for this entry: `GLGQYIYET`
**A:** 6.85

**Q:** Check `EELKSLFNTV` too.
**A:** 5.78

---

Target: HLA-A*02:06
Assay: IEDB peptide-MHC binding, purified MHC/competitive/fluorescence; filed as Kd, often an IC50 or EC50 that approximates it; bounds were set here for any values at or beyond the usual limits of such assays
Settings: source organism: Human immunodeficiency virus 1
readoutType: Kd
Give the value; after it, write the unit.

**Q:** Consider the sequence shown here: `EELKSLFNTV` What is its recorded Kd?
**A:** 515 nM

---

Target: HLA-A*69:01
Assay: IEDB peptide-MHC binding, purified MHC/competitive/fluorescence; filed as Kd, often an IC50 or EC50 that approximates it; bounds were set here for any values at or beyond the usual limits of such assays
Settings: source organism: Reston ebolavirus
pKd: −log10 of the molar value.
readoutType: pKd

**Q:** Would you kindly share the measured pKd for `WFQRIPLQW` ?
**A:** ≤ 4.70

---

Molecular target: HLA-A*11:01
Assay: IEDB peptide-MHC binding, purified MHC/competitive/radioactivity; filed as Kd, often an IC50 or EC50 that approximates it; bounds were set here for any values at or beyond the usual limits of such assays
Conditions: source organism: Vaccinia virus WR
Below, each entry is listed alongside its reported pKd.
Here pKd is given on a logarithmic scale as minus log10 of the concentration in mol/L.

**Q:** Recorded pKd for `KTNDINVRR` with HLA-A*11:01, please?
**A:** 7.52

**Q:** Same for `LLMHLVSLY`
**A:** 8.15

**Q:** Similarly, `LLTDTIESAK` ?
**A:** 7.07

**Q:** `TVHKLTQDEK` , same question.
**A:** 7.09

**Q:** Next up: `LIDTTSRELK`
**A:** 6.79

Continuing:
**Q:** Recorded pKd for `TSCSKNEAEK` with HLA-A*11:01, please?
**A:** 6.78

**Q:** Moving on to `LVKESMASLK`
**A:** 7.95

**Q:** Check `QMAGVEVRY` too.
**A:** 5.64

---

Molecular target: HLA-A*01:01
Assay: IEDB peptide-MHC binding, purified MHC/competitive/radioactivity; filed as Kd, often an IC50 or EC50 that approximates it; bounds were set here for any values at or beyond the usual limits of such assays
Conditions: source organism: Mammarenavirus juninense
readoutType: pKd
// pKd: -log10(molar conc.)

**Q:** Under HLA-A*01:01: pKd value of `KAEVSMHEV` ?
**A:** 4.76

---

Target: HLA-A*33:01
Test: IEDB peptide-MHC binding, purified MHC/competitive/radioactivity; filed as Kd, often an IC50 or EC50 that approximates it; bounds were set here for any values at or beyond the usual limits of such assays
Conditions: source organism: Dengue virus 4 Philippines/H241/1956
readoutType: Kd (nM)
A number alone suffices; assume nM.

Known results for sequences:
**Q:** Sample `STMPLVMAWR` — what was its Kd?
**A:** 2.89

**Q:** Consider next the sequence `ENMEVEIWTR` in the same way.
**A:** 106

**Q:** Would you mind doing `IFLRKLTSR` as well?
**A:** 108

***
**Q:** For the sequence shown here, `LMCHATFTTR` , give the reported Kd.
**A:** 97.1

**Q:** // next record `SISNITTATR`
**A:** 10.6

Data origin: the Immune Epitope Database (IEDB)
